Task for the reader: assign each of the following molecules its reported pIC50.
assayed target: EphrinB2-EphB1 (Homo sapiens, UniProt P54762)
Construct: soluble human EphB1-His, EphB2-His, and EphB4-His ectodomains; commercially available human EphrinB1-Fc (EB1), EphrinB2-Fc (EB2), and EphrinB3-Fc (EB3) ectodomain proteins; purchased
Sequence (P54762 18-540 limits assumed): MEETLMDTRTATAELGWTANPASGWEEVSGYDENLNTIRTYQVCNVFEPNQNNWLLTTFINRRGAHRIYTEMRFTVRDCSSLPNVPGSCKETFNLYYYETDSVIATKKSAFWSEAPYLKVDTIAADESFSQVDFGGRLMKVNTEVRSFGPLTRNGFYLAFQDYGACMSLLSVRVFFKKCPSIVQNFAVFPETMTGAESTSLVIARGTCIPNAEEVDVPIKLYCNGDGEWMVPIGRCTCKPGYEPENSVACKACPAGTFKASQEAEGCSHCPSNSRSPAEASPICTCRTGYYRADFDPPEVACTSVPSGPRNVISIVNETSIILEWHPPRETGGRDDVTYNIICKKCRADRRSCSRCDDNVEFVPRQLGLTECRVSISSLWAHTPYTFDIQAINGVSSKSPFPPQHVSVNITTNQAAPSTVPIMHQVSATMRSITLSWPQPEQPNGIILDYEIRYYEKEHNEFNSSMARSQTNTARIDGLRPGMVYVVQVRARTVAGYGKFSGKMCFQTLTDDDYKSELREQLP
test summary: Octet 80 sec association/500 sec dissociation, immobilized human EphrinB2-Fc binding to soluble human EphB1-His
run conditions: EphB1; Full AUC; read-out: Absolute IC50
One number for each entry, as −log10 of the molar value.

Oc1c(I)cc(CN2CCOCC2)c2cccnc12 ... 5.83

# ---- query molecule ----
State the recorded pIC50 for this entry: Oc1c(Br)cc(CN2CCN(c3ccc(Br)cc3)CC2)c2cccnc12 6.30

* * *

assayed target: EphrinB2-EphB4 (Homo sapiens)
Construct: soluble human EphB1-His, EphB2-His, and EphB4-His ectodomains; commercially available human EphrinB1-Fc (EB1), EphrinB2-Fc (EB2), and EphrinB3-Fc (EB3) ectodomain proteins; purchased
Sequence (P54760 16-539 limits assumed): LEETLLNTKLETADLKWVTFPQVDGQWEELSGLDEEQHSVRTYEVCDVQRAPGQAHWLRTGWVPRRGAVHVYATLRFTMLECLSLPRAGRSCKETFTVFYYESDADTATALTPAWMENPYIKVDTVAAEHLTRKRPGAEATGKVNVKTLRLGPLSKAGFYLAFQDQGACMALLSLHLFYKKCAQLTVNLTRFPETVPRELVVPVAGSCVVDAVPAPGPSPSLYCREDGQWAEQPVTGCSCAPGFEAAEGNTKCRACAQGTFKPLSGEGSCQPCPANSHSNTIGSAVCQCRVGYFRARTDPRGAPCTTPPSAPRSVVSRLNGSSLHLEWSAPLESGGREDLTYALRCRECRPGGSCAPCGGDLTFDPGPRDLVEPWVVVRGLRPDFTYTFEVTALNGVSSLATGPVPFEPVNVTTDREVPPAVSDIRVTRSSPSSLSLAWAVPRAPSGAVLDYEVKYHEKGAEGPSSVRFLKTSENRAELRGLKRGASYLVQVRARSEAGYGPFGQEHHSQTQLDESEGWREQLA
test summary: Octet 80 sec association/500 sec dissociation, immobilized human EphrinB2-Fc binding to soluble human EphB4-His
run conditions: EphB4; Association (AUC); read-out: Absolute IC50
Method: In another experiment, whether certain A20 analogs might have specificity for different Eph receptors was tested. […] Because the response levels during the dissociation step plateau for the EphrinB2-EphB2 and EphrinB2-EphB1 interactions by the first 80″, AUCs were also calculated for run data encompassing the first 160″ of each experiment to account for both the 80″ association data (red asterisks) and the first 80″ of dissociation data (marked by green line and asterisks). […]
observable: IC50

Oc1c(Br)cc(CN2CCN(c3ccc(Br)cc3)CC2)c2cccnc12 ... > 3.2 µM

# ---- query compound ----
State the recorded IC50 for this entry: Oc1c(I)cc(CN2CCOCC2)c2cccnc12 > 3.2 µM

* * *

assayed target: EphrinB2-EphB2 (Homo sapiens)
Construct: soluble human EphB1-His, EphB2-His, and EphB4-His ectodomains; commercially available human EphrinB1-Fc (EB1), EphrinB2-Fc (EB2), and EphrinB3-Fc (EB3) ectodomain proteins; purchased
Sequence (P29323 19-543 limits assumed): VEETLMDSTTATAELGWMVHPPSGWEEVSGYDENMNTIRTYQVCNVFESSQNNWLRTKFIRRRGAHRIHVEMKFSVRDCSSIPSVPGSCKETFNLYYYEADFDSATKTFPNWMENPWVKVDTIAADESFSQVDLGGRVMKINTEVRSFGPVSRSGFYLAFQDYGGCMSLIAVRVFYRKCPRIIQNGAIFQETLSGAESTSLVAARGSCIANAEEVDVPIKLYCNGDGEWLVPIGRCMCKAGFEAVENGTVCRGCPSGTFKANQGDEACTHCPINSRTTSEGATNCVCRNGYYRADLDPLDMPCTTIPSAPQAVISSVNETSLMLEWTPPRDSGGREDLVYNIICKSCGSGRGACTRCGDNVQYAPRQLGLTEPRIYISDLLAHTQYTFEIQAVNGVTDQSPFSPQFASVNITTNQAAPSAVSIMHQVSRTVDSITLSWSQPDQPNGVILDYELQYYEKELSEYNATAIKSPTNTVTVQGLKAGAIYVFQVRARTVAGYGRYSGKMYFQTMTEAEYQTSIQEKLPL
test summary: Octet 80 sec association/500 sec dissociation, immobilized human EphrinB2-Fc binding to soluble human EphB2-His
run conditions: EphB2; 25 nM EphB2; 3.2 μM compound; A20-I as max control; 0* = less than 0, no inhibition; read-out: % Inhibition: Association ONLY (80 sec)
observable: inhibition at 3.2 µM

Guide cases for inhibition at 3.2 µM, answers given:
Oc1c(I)cc(CN2CCOCC2)c2cccnc12 ... 59.6%
O=S1(=O)CCN(Cc2cc(Br)c(O)c3ncccc23)CC1 ... 59.5%
Oc1c(Br)cc(CN2CCN(Cc3ccc(Br)cc3)CC2)c2cccnc12 ... 62.1%
Oc1ccc(CN2CCN(Cc3ccc(C(F)(F)F)cc3)CC2)c2cccnc12 ... 21.3%
Oc1ccc(CN2CCN(Cc3ccc(Br)cc3)CC2)c2cccnc12 ... 37.8%

For every item below, please supply its inhibition at 3.2 µM.
1. COc1ccccc1N1CCN(Cc2cc(Br)c(O)c3ncccc23)CC1
2. Oc1c(Br)cc(CN2CCOCC2)c2cccnc12
3. COc1ccc2[nH]cc(C(=O)N3CCN(c4ccccc4OC)CC3)c2c1
4. COc1ccc2[nH]cc(C(=O)N3CCOCC3)c2c1
5. OCc1ccc2c(CN3CCOCC3)cc(Br)c(O)c2n1
6. Oc1c(Cl)cc(CN2CCOCC2)c2cccnc12
7. Oc1ccc(CN2CCN(c3ccc(Br)cn3)CC2)c2cccnc12

["53.4%", "55.4%", "0%", "4.3%", "50.5%", "64.1%", "69.4%"]
